Measured inhibition in vivo at 1 µM, listed per entry for reference.
test system: chorioallantoic membrane (CAM); assay: Chorioallantoic membrane (CAM) assay, VEGF-derived angiogenesis; assay type: in vivo, chick; settings: Gallus gallus, 72 h; VEGF (50 ng/CAM) + 2.0 ng/CAM, 1.0 μM; 3 days after treatment; read-out: Inhibition ratio
Expressed in %, but write only the number.

// returns reported inhibition in vivo at 1 µM for input Cc1nc(N2CCCC2)c(C)c(C)c1O [Compound 6m]
60.5

What do you have for Cc1nc(-n2cccc2)c(C)c(C)c1O [Compound 6p] ?
44

What do you have for Cc1nc(N2CCOCC2)c(C)c(C)c1O [Compound 6o, 2,4,5-trimethyl-6-morpholinopyridin-3-ol] ?
59

What do you have for Cc1nc(N2CCN(C)CC2)c(C)c(C)c1O [Compound 6n] ?
24.7
